experiment-notes: Cmax in ICR mouse at 20 mg/kg, po by LC-MS/MS analysis
Assay type: ADME, organism-based
Set-up: dose 20 mg/kg, route po
conditions-used: in vivo
quantity-kind: Cmax (ng/mL)
Supply the numeric figure in ng/mL, leaving out any unit text.

**Query** For the molecule Cc1nc(N[C@H](C)c2cccc(C(F)F)c2F)c2cc3c(cc2n1)OC[C@H]1CN(C(=O)[C@H]2CCOC2)CCN31 , report Cmax.
**Result** 1550

**Query** For the molecule Cc1nc(N[C@H](C)c2cccc(C(F)F)c2F)c2cc3c(cc2n1)OC[C@H]1CN(C(=O)C2CCOCC2)CCN31 , report Cmax.
**Result** 241

**Query** For the molecule Cc1nc(N[C@H](C)c2cccc(C(F)F)c2F)c2cc3c(cc2n1)OC[C@H]1CN(C(=O)C2(F)CC2)CCN31 , report Cmax.
**Result** 582

**Query** For the molecule COCC(=O)N1CCN2c3cc4c(N[C@H](C)c5cccc(C(F)F)c5F)nc(C)nc4cc3OC[C@H]2C1 , report Cmax.
**Result** 180

**Query** For the molecule Cc1nc(N[C@H](C)c2cccc(C(F)F)c2F)c2cc3c(cc2n1)OC[C@H]1CN(C(=O)C2CCO2)CCN31 (some centres not stated) , report Cmax.
**Result** 97.1

**Query** For the molecule Cc1nc(N[C@H](C)c2cccc(C(F)F)c2F)c2cc3c(cc2n1)OC[C@H]1CN(C(=O)[C@@H]2C[C@H]2F)CCN31 , report Cmax.
**Result** 651

**Query** For the molecule Cc1nc(N[C@H](C)c2cccc(C(F)F)c2F)c2cc3c(cc2n1)OC[C@H]1CN(C(=O)C2(C#N)CC2)CCN31 , report Cmax.
**Result** 600

**Query** For the molecule CC(=O)N1CCN2c3cc4c(N[C@H](C)c5cccc(C(F)F)c5F)nc(C)nc4cc3OC[C@H]2C1 , report Cmax.
**Result** 270

**Query** For the molecule Cc1nc(N[C@H](C)c2cccc(C(F)F)c2F)c2cc3c(cc2n1)OC[C@H]1CN(C(=O)C2COC2)CCN31 , report Cmax.
**Result** 260

**Query** For the molecule COc1cc2nc(C)nc(N[C@H](C)c3cc(N)cc(C(F)(F)F)c3)c2cc1O[C@H]1CCOC1 , report Cmax.
**Result** 1050

**Query** For the molecule COCCC(=O)N1CCN2c3cc4c(N[C@H](C)c5cccc(C(F)F)c5F)nc(C)nc4cc3OC[C@H]2C1 , report Cmax.
**Result** 674

**Query** For the molecule Cc1nc(N[C@H](C)c2cccc(C(F)F)c2F)c2cc3c(cc2n1)OC[C@H]1CN(C(=O)NC2CC2)CCN31 , report Cmax.
**Result** 557

**Query** For the molecule Cc1nc(N[C@H](C)c2cccc(C(F)F)c2F)c2cc3c(cc2n1)OC[C@H]1CN(C(=O)N(C)C)CCN31 , report Cmax.
**Result** 621

**Query** For the molecule COCC1(C(=O)N2CCN3c4cc5c(N[C@H](C)c6cccc(C(F)F)c6F)nc(C)nc5cc4OC[C@H]3C2)CC1 , report Cmax.
**Result** 161

**Query** For the molecule Cc1nc(N[C@H](C)c2cccc(C(F)F)c2F)c2cc3c(cc2n1)OC[C@H]1CN(C(=O)N2CCOCC2)CCN31 , report Cmax.
**Result** 356

**Query** For the molecule Cc1nc(N[C@H](C)c2cccc(C(F)F)c2F)c2cc3c(cc2n1)OC[C@H]1CN(C(=O)[C@@H]2CCOC2)CCN31 , report Cmax.
**Result** 47

**Query** For the molecule CNC(=O)N1CCN2c3cc4c(N[C@H](C)c5cccc(C(F)F)c5F)nc(C)nc4cc3OC[C@H]2C1 , report Cmax.
**Result** 751
